Target: B1R receptor of the rat (Rattus norvegicus)
Construct: host or cells: CHO K1 cells (Chinese hamster ovary), stably transfected
Sequence (P97583 whole entry): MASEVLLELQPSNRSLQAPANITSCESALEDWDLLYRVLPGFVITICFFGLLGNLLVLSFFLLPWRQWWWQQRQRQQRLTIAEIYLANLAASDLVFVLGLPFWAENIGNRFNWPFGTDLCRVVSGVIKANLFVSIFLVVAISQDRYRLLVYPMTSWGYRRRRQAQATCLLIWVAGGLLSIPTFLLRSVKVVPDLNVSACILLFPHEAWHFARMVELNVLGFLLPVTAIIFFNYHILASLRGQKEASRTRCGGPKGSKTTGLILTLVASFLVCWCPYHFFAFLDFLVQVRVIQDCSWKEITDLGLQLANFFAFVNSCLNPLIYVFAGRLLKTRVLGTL
Experiment: Functional study on the bradykinin receptor 1 (B1R), FLIPR Ca2+ assay, rB1R cells
Assay type: cell-based
Details: CHO-K1, test substance 10 μM, agonist Des-Arg9-bradykinin 100 nM, % inhibition compared with the maximum achievable inhibition, read-out: B1R Antagonism, rat [10 μM] % Inhibition
Structures can show the parent of a compound that is named as a salt.
# reported inhibition at 10 µM; entries follow
Answer in %, number only, no unit symbol.

compound: COc1cc(C)c(S(=O)(=O)N2CCCC2COCC(=O)NCc2ccc(N3CCOCC3)cc2)c(C)c1 (stereo not drawn)
inhibition at 10 µM [%]: 107

compound: Cc1cc(C)c(S(=O)(=O)N2Cc3ccccc3CC2COCC(=O)N2CCC(N3CCN(C)CC3)CC2)c(C)c1 (stereo not drawn)
inhibition at 10 µM [%]: 99.2

compound: O=C(COCC1CCCCN1S(=O)(=O)c1c(Cl)cccc1Cl)N1CCN(c2ccccn2)CC1 (stereo not drawn)
inhibition at 10 µM [%]: 98.2

Provide inhibition at 10 µM, system B1R receptor of the rat (Rattus norvegicus), entry O=C(COC[C@@H]1Cc2ccccc2CN1S(=O)(=O)c1ccc(Cl)cc1Cl)N1CCC(CCN2CCCC2)CC1
96.9

Provide inhibition at 10 µM, system B1R receptor of the rat (Rattus norvegicus), entry O=C(COCC1CCCCN1S(=O)(=O)c1c(Cl)cccc1Cl)N1CCN(c2ccncc2)CC1 (stereo not drawn)
92.9

Provide inhibition at 10 µM, system B1R receptor of the rat (Rattus norvegicus), entry CN1CCN(Cc2ccc(CNC(=O)COCC3CCCCN3S(=O)(=O)c3c(Cl)cc(Cl)cc3Cl)cc2)CC1 (stereo not drawn)
92.5

Provide inhibition at 10 µM, system B1R receptor of the rat (Rattus norvegicus), entry COc1cc(C)c(S(=O)(=O)N2CCCCC2COCC(=O)Nc2ccc(N3CCOCC3)cc2)c(C)c1 (stereo not drawn)
100

Provide inhibition at 10 µM, system B1R receptor of the rat (Rattus norvegicus), entry COc1cc(C)c(S(=O)(=O)N2CCCCC2COCC(=O)N2CCN(CC3CCN(C)CC3)CC2)c(C)c1 (stereo not drawn) [Example 106, dihydrochloride]
103

###

Biological target: human B1R receptor (Homo sapiens)
Construct: host or cells: CHO K1 cells (Chinese hamster ovary), stably transfected
Sequence (P46663 1-353): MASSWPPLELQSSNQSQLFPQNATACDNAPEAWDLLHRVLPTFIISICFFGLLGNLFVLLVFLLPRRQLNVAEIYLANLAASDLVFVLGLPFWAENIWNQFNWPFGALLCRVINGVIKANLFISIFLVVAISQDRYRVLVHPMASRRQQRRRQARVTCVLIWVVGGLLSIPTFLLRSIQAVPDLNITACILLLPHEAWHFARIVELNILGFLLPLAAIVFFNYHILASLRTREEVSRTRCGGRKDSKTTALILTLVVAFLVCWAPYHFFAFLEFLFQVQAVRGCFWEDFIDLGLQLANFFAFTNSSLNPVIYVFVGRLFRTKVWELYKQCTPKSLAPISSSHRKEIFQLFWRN
Experiment: Functional study on the bradykinin receptor 1 (B1R), FLIPR Ca2+ assay, hB1R cells
Type: cell-based
Details: CHO-K1, test substance 10 μM, agonist Lys-Des-Arg9-bradykinin 0.5 nM, % inhibition compared with the maximum achievable inhibition, read-out: B1R Antagonism, human [10 μM] % Inhibition
Where a name gives a salt, the structure may show the parent alone.
Quick rule: inhibition at 10 µM of at least 70% means condition met, below that means condition not met.

These recorded examples may help you get a feel for the data.
molecule: CN(C(=O)COCC1CCCCN1S(=O)(=O)c1ccccc1C(F)(F)F)[C@H]1CCN(Cc2ccccc2)C1 (stereo partly shown)
assigned_class: condition met
--
molecule: COc1cc(C)c(S(=O)(=O)N2CCCCC2COCC(=O)N2CCN(CCC#N)CC2)c(C)c1 (stereo not shown)
assigned_class: condition met
--
molecule: COc1cc(C)c(S(=O)(=O)N2CCCCC2COCC(=O)NC2CCN(Cc3ccccc3)C2)c(C)c1 (stereo not shown)
assigned_class: condition not met
--
molecule: COc1cc(C)c(S(=O)(=O)N2CCCC[C@@H]2COCC(=O)N2CCN(C3CCN(C)CC3)CC2)c(C)c1 [Example 177, dihydrochloride]
assigned_class: condition met
--
molecule: COc1cc(C)c(S(=O)(=O)N2CCCC2COCC(=O)N2CCN(CC3CCCCC3)CC2)c(C)c1 (stereo not shown)
assigned_class: condition met

For the next question, use this molecule.
Does the molecule COc1cc(C)c(S(=O)(=O)N2CCCCC2COCC(=O)N2CCN(c3ncccc3C#N)CC2)c(C)c1 (stereo not shown) have recorded inhibition at 10 µM that is 70% or more?
condition met

Cited source for all entries: patent US8435978B2
